Assignment: determine reported activation at 1 µM for the given compounds.
Test system: neonatal rat ventricular myocytes (NRVMs)
Assay: Myocyte proliferation assay (EdU) in neonatal rat ventricular myocytes
Assay type: cell-based
Conditions: Rattus norvegicus, Ventricular myocyte; 1 uM compound; growth relative to blank myocyte growth without compound added

Examples with their reported activation at 1 µM follow.
query: Look at this compound and give its reported activation at 1 µM. COc1ccc(/C=C2\N=C(N)N(C)C2=O)cc1OC [TJU-B070]
result: < 10%

query: Field request: activation at 1 µM | item: O=C1NC(Nc2ccccc2)=N/C1=C\c1ccc2c(c1)OC(F)(F)O2 [TJU-B028]
result: < 10%

query: State the recorded activation at 1 µM for this entry: COc1ccc(NC2=N/C(=C\c3ccc4c(c3)OCCO4)C(=O)N2)cc1 [TJU-B006]
result: 10 to 50%

Continuing:
query: Given the compound CC(=O)N(C1=N/C(=C\c2ccc3c(c2)OCO3)C(=O)N1)c1ccccc1 [TJU-B183] , what is its reported activation at 1 µM?
result: < 10%
